hCA II (Homo sapiens) measurements of pKi, listed per entry.
pKi: −log10 of the molar value.
OBSERVABLE: pKi

> print(dat)
                                   molecule  endpoint.value
1  Oc1ccc(C=Cc2cc(O)cc(O)c2)cc1 [RSV, 3,4′,5-trihydroxystilbene, reference compound]            5.55
2      Oc1ccc(/C=C/c2ccc(C(F)(F)F)cc2)cc1Cl            4.81

----------
So I've got Ki readings for hCA VB (Homo sapiens), take a look.
OBSERVABLE: Ki

> print(dat)
                                   compound  endpoint.value
1  Oc1ccc(C=Cc2cc(O)cc(O)c2)cc1 [RSV, 3,4′,5-trihydroxystilbene, reference compound]          4.6 µM
2                Oc1ccc(/C=C/c2ccccc2)cc1Cl         84.5 µM
3      Oc1ccc(/C=C/c2ccc(C(F)(F)F)cc2)cc1Cl         36.2 µM
4              COc1ccc(/C=C/c2ccc(O)cc2)cc1          9.7 µM
5          Oc1ccc(/C=C/c2ccc(Cl)cc2Cl)cc1Cl         32.2 µM

Source of measurements: paper PMC9694798
